Consider the following compounds and their measured MIC readings.
Tested on: M.tb H37Rv
ASSAY PROCEDURE: Broth microdilution MIC with Alamar blue endpoint (MABA), M.tb H37Rv
Format: cell-based
MEASUREMENT PARAMETERS: Mycobacterium tuberculosis, broth microdilution, MABA/OD600, read-out: Mycobacterium tuberculosis MIC, H37Rv

Would you please look over these solved cases?
CCN(CC)CCNC[C@H]1CN(c2ccc(-c3ccc(-c4nnn(C)n4)nc3)c(F)c2)C(=O)O1    > 8 µg/mL
CCN(CC)CCCNC[C@H]1CN(c2ccc(-c3ccc(-c4nnn(C)n4)nc3)c(F)c2)C(=O)O1    > 8 µg/mL

Kindly review the next compound as well.
Find the measured MIC of Cl.Cn1nnc(-c2ccc(-c3ccc(N4C[C@H](CNCCN)OC4=O)cc3F)cn2)n1 and report it.
> 8 µg/mL
